Test system: EPHA4;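 note: KINOMEscan kinase panel screen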
Details: concentration: 1 μM, replicates: in singlicate; n = 1
The reader will find reported %Inh values listed item by item below.
endpoint_name: %Inh (%)

INSERT INTO results (compound, quantitative_result) VALUES
  ('CN1C(=O)C(Nc2ccccc2)=C(c2ccccc2)C1=O', 0),
  ('O=C(NCc1cccs1)c1cc(C(=O)c2c(Cl)cccc2Cl)c[nH]1', 4),
  ('CCS(=O)(=O)c1ccc(OC)c(Nc2ncc(-c3ccc(F)cc3)o2)c1.Cl', 0),
  ('CCn1c(-c2ccoc2)nc2cnccc21', 9),
  ('COc1cc2nccc(Nc3ccc(OCc4ccc(NC(C)=O)cc4)cc3)c2cc1OC.Cl', 13),
  ('Cc1nnc(-c2ccc3ncn(-c4ccc(S(C)=O)cc4)c3c2)o1 (centres unmarked)', 46),
  ('Nc1ncnc2c1ncn2-c1cccc(F)c1', 4),
  ('CCS(=O)c1ccc(-c2coc3ccc(-c4nnc(C)o4)cc23)cc1 (centres unmarked)', 0);
